Values compiled from paper PMC3898741.

Biological target: PfCDPK1 (Plasmodium falciparum, UniProt P62344)
Sequence (P62344 whole entry): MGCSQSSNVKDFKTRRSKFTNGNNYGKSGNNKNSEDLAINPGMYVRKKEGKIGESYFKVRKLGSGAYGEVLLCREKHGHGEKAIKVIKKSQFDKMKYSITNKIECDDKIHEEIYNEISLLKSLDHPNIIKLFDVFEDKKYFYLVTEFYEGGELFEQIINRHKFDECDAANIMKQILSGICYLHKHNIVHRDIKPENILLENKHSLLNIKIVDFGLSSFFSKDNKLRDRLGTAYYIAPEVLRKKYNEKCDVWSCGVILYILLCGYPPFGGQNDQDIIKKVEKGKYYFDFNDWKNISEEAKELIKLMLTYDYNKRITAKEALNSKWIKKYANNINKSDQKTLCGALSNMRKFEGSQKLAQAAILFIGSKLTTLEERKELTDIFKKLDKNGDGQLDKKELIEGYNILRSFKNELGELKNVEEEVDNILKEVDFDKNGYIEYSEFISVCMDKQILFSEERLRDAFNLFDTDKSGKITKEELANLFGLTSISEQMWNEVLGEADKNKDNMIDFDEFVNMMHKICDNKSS
Assay: PfCDPK1 enzyme inhibition (Kinase-Glo ATP depletion)
Settings: isolated recombinant enzyme
Parameter: pIC50
Please note pIC50 is a logarithmic value: minus log10 of concentration in mol/L. Answer with that number alone.

Sure, the documented pIC50 for CC(C)CCNc1ncc(-c2cnc3ccc(NC4CCN(C)CC4)nn23)cn1 [Compound 31] is 7.85

Now turn to the next compound.
Sure, the documented pIC50 for CC(C)CCNC(=O)c1ccc(-c2cnc3ccc(N[C@H]4CC[C@H](N)CC4)nn23)cc1 [Compound 9] is 7.80

---

Tested on: P. falciparum parasite
Test: In vitro P. falciparum parasite growth (FACS, hydroethidine)
Type: cell-based, Plasmodium falciparum
Details: Plasmodium falciparum; in vitro parasite growth, 48 h; read-out: P. falciparum EC50
Class key for EC50 values: low band: < 400 nM; middle band: ≥ 400 nM and < 600 nM; high band: ≥ 600 nM

Please review the following examples before continuing.
Any idea which band CCCCNc1ccc(-c2cnc3ccc(NC4CCN(C)CC4)nn23)cn1 is in?
middle band

Any idea which band CN1CCC(Nc2ccc3ncc(-c4cccc(NC(=O)C5CC5)c4)n3n2)CC1 is in?
middle band

Any idea which band CC(C)CCOc1ccc(-c2cnc3ccc(N[C@H]4CC[C@H](N)CC4)nn23)cn1 is in?
middle band

Any idea which band CC(C)CCNc1ccc(-c2cnc3ccc(NC4CCNCC4)nn23)cn1 is in?
low band

Any idea which band CC(C)CCNc1ccc(-c2cnc3ccc(N4CCC(N)CC4)nn23)cn1 is in?
low band

***
Any idea which band CC(C)CCNC(=O)c1ccc(-c2cnc3ccc(N[C@H]4CC[C@H](N)CC4)nn23)cc1 is in?
middle band

Any idea which band CN1CCC(Nc2ccc3ncc(-c4ccc(NCC5CC5)nc4)n3n2)CC1 is in?
middle band

Any idea which band CC(C)CCNc1ccc(-c2cnc3ccc(N4CCN(C)CC4)nn23)cn1 is in?
high band

Any idea which band CC(C)CCNc1ccc(-c2cnc3ccc(NC4CN(C)C4)nn23)cn1 is in?
high band

---

System: P. falciparum parasite
Test: In vitro P. falciparum parasite growth (FACS, hydroethidine)
Type: cell-based, Plasmodium falciparum
Conditions: Plasmodium falciparum; in vitro parasite growth, 48 h; read-out: P. falciparum EC50
Recorded pEC50 values for a group of compounds are listed next.
Please note pEC50 is a logarithmic value: minus log10 of concentration in mol/L. Answer with that number alone.

Sure, the documented pEC50 for CC(=O)Nc1cccc(-c2cnc3ccc(N[C@H]4CC[C@H](N)CC4)nn23)c1 [Compound 6] is 6.49

Sure, the documented pEC50 for CC(C)CCNc1ncc(-c2cnc3ccc(N[C@H]4CC[C@H](N)CC4)nn23)cn1 [Compound 32] is 6.77

Sure, the documented pEC50 for CC(C)CCNc1ccc(-c2cnc3ccc(NC4CCN(C)C4)nn23)cn1 (stereo not drawn) [Compound 24] is 6.77

Sure, the documented pEC50 for COCCNc1ccc(-c2cnc3ccc(NC4CCN(C)CC4)nn23)cn1 [Compound 20] is 6.17

Now turn to the next compound.
Sure, the documented pEC50 for CC(C)CCNC(=O)c1ccc(-c2cnc3ccc(NC4CCN(C)CC4)nn23)cc1 [Compound 10] is 6.11

---

Recorded Papp values for a group of compounds are listed next.
Experiment: PAMPA permeability
Type: in vitro ADME
The response must be a number in ×10⁻⁶ cm/s with no trailing unit.

Field: example entries. Status: answers known.
Sure, the documented Papp for CC(C)CCNc1ccc(-c2cnc3ccc(NC4CCN(C)C4)nn23)cn1 (stereo not drawn) [Compound 24] is 11.4

Sure, the documented Papp for CC(C)CCNc1ccc(-c2cnc3ccc(N4CCC(N)CC4)nn23)cn1 [Compound 28] is 5.5

Now turn to the next compound.
Sure, the documented Papp for CC(C)CCNc1ccc(-c2cnc3ccc(N4CCC(N(C)C)CC4)nn23)cn1 [Compound 27] is 13.7
